# Target of assay: T1, Extracellular domain of human PD1 (huPD1-ECD) (human, UniProt Q15116 25-169, biotinylated in the ligand inhibition assay (sites not given))
# T1 construct: Expressed with a hexahistidine tag or as Fc fusion; also called biotinylated PD-1
# T1 sequence (Q15116 25-169 limits assumed): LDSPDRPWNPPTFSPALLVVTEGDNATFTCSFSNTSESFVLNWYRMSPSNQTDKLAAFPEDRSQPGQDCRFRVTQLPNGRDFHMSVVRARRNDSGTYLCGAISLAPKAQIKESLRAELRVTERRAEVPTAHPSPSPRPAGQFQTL
# Protocol details: SPR ProteOn, captured mAb, huPD1-ECD analyte;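 note: SPR on ProteOn XPR36, antibodies captured by anti-IgG Fc on a GLC chip, data fitted with a Langmuir 1:1 model to give on-rate, off-rate and equilibrium KD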
Property name: kon (M⁻¹ s⁻¹)
Answer with a number only, understood to be in M⁻¹ s⁻¹.

Binder	Unit tag	Reported
PD1B195 (antibody, V domains shown, also called PD1H170/PD1L67) VH: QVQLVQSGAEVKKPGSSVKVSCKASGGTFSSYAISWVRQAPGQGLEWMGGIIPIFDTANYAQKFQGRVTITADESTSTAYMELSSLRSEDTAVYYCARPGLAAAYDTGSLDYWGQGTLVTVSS VL: EIVLTQSPATLSLSPGERATLSCRASQSVDSYLAWYQQKPGQAPRLLIYDASNRATGIPARFSGSGSGTDFTLTISSLEPEDFAVYYCQQREYWPLTFGQGTKVEIK	M⁻¹ s⁻¹	1.23e+06

Sample PD1B197 (antibody, V domains shown, also called PD1H163/PD1L185) VH: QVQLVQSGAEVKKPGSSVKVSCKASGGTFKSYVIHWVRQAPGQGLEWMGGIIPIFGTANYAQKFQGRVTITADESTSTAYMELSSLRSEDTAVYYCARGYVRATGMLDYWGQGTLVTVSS VL: EIVLTQSPATLSLSPGERATLSCRASQSVSNYLAWYQQKPGQAPRLLIYDASNRATGIPARFSGSGSGTDFTLTISSLEPEDFAVYYCQQRAYWPLTFGQGTKVEIK — what was its kon?
658000

Then PD1B199 (antibody, V domains shown, also called PD1H164/PD1L86) VH: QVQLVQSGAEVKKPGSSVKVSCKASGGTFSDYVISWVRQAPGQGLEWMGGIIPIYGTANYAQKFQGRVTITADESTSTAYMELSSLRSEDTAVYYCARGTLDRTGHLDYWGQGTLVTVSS VL: EIVLTQSPATLSLSPGERATLSCRASQSVSSYLAWYQQKPGQAPRLLIHDASTRATGIPARFSGSGSGTDFTLTISSLEPEDFAVYYCQQRNYWPLTFGQGTKVEIK ?
933000

Then PD1B71 (antibody, V domains shown, Tested as IgG2sigma/kappa; also called PD1H108/PH9L3) VH: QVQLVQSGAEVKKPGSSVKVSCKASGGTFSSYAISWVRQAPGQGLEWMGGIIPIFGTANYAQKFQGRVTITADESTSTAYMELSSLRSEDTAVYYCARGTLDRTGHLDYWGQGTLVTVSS VL: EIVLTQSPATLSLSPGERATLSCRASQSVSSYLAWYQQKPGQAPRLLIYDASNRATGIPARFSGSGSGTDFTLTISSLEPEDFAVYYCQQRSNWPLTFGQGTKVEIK ?
955000

Then PD1B11 (antibody, V domains shown, Tested as IgG2sigma/kappa; also called PD1H3/PH9L3) VH: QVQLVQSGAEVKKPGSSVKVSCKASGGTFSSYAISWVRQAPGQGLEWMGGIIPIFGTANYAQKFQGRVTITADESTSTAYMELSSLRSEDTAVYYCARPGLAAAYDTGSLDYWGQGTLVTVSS VL: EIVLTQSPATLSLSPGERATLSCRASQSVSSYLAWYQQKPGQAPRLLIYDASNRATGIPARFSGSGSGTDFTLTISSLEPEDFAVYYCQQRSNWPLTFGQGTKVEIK ?
933000

Then PD1B200 (antibody, V domains shown, also called PD1H164/PD1L168) VH: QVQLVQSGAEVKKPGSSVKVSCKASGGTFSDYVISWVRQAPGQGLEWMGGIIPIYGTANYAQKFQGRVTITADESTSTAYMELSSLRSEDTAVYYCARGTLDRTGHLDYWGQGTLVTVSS VL: EIVLTQSPATLSLSPGERATLSCRASQSVDNYLAWYQQKPGQAPRLLIHDASNRATGIPARFSGSGSGTDFTLTISSLEPEDFAVYYCQQRSAWPLTFGQGTKVEIK ?
1.05e+06

Then PD1B194 (antibody, V domains shown, also called PD1H170/PD1L71) VH: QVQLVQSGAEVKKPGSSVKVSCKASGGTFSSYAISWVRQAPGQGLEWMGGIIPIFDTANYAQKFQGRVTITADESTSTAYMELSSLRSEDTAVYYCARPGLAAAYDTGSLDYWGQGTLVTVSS VL: EIVLTQSPATLSLSPGERATLSCRASQSVRSYLAWYQQKPGQAPRLLIYDASYRATGIPARFSGSGSGTDFTLTISSLEPEDFAVYYCQQRDYWPLTFGQGTKVEIK ?
897000
